Experimental Protocol: RP, Waters ACQUITY UPLC BEH C18, 100 × 2.1 mm, 1.7 µm, 60 °C, 0.3 mL/min, estimated dead time 0.73 min; A: water + 0.01% formic acid; B: methanol + 0.01% formic acid; gradient (min/%B) 0/10 14/90 16/90
Measurement Context: stereoisomer not certain
Property Name: LC retention time (min)
Quick note: give the figure in min, leave out the unit.

(Q) Report LC retention time for CC12CCC3c4ccc(O)cc4CCC3C1CCC2=O (stereo not given)
(A) 9.99

(Q) Return LC retention time (reported value) for this compound: "CNC(=O)CSP(=S)(OC)OC"
(A) 4.63

(Q) Determine its reported LC retention time: CN1C2CCC1C(C(=O)O)C(OC(=O)c1ccccc1)C2 (stereo not given)
(A) 4.08

(Q) Please supply the value of reported LC retention time for the item "CCC(=C(CC)c1ccc(O)cc1)c1ccc(O)cc1"
(A) 10.3

(Q) Return LC retention time for the following compound: "Cc1c(N)c(=O)n(-c2ccccc2)n1C"
(A) 3.48

(Q) Identify measured LC retention time corresponding to "CC(C)c1ccc(NC(=O)N(C)C)cc1"
(A) 8.83

(Q) Quote LC retention time reported for "Cc1cc(NS(=O)(=O)c2ccc(N)cc2)no1" please.
(A) 3.91

(Q) Give the value of LC retention time reported for the following: "CC(C)N1C(=O)N(c2ccccc2)CSC1=NC(C)(C)C"
(A) 13.1

(Q) Report LC retention time, nothing else, for this compound: CC1=CC2OC3C(O)CC(C)(C34CO4)C2(CO)C(O)C1=O (stereo not given)
(A) 2.83

(Q) Specify reported LC retention time for the compound shown: "CNC(=O)Oc1cccc2c1OC(C)(C)C2"
(A) 7.48

(Q) Hello, please tell me recorded LC retention time for this one: CC12CCC3c4ccc(OS(=O)(=O)O)cc4CCC3C1CCC2=O (stereo not given)
(A) 10.6

(Q) For the compound "COP(=S)(OC)SCn1nnc2ccccc2c1=O" , give its reported LC retention time.
(A) 11.5

(Q) Using known records, supply LC retention time for CC(C)Cc1ccc(C(C)C(=O)O)cc1 (stereo not given)
(A) 11.8

(Q) Report LC retention time, nothing else, for this compound: "CNC(=O)Oc1cc(C)c(SC)c(C)c1"
(A) 9.95

(Q) Find the measured LC retention time of COCC(=O)N(c1c(C)cccc1C)C(C)C(=O)OC (stereo not given) and report it.
(A) 9.09

(Q) // fetch LC retention time given entry "O=C(c1ccc(O)cc1O)c1ccc(O)cc1O"
(A) 6.4

(Q) Note down LC retention time recorded for "CCOP(=S)(OCC)Oc1cc(C)nc(C(C)C)n1"
(A) 11.9

(Q) Give the measured LC retention time for "c1ccc2[nH]c(-c3cscn3)nc2c1"
(A) 4.8

(Q) Please indicate LC retention time recorded for "CCSC(=O)N1CCCCCC1"
(A) 10.4

(Q) Report measured LC retention time; entry is CC(C(=O)O)c1cccc(C(=O)c2ccccc2)c1 (stereo not given)
(A) 9.5

(Q) Tell us which LC retention time value is on record for "CCN(CC)c1nc(C)cc(OP(=S)(OC)OC)n1"
(A) 12

(Q) Respond only with LC retention time recorded for COc1ccc2cc(C(C)C(=O)O)ccc2c1 (stereo not given)
(A) 9.74

(Q) Given CCCC1CC(C(=O)NC(C(C)O)C2OC(SC)C(O)C(O)C2O)N(C)C1 (stereo not given) , respond with its LC retention time.
(A) 3.13

(Q) Give the reported LC retention time for this compound. CCNC(C)Cc1ccc2c(c1)OCO2 (stereo not given)
(A) 3.48

(Q) Give the reported value of LC retention time for this record: "CC(=O)Nc1ccc(O)cc1"
(A) 2.05

(Q) Kindly indicate its recorded LC retention time. Item: "CC(C)N1C(=O)c2ccccc2NS1(=O)=O"
(A) 6.66

(Q) Please look at this compound and report its LC retention time: CC12CCC3c4ccc(O)cc4CCC3C1CC(O)C2O (stereo not given)
(A) 6.96

(Q) Provide LC retention time value for the following compound: CC(=O)OC1(C(C)=O)CCC2C3CC(C)C4=CC(=O)CCC4(C)C3CCC21C (stereo not given)
(A) 11.7

(Q) Give the measured LC retention time for "CCNc1nc(NC(C)(C)C)nc(SC)n1"
(A) 10.6

(Q) Complete the entry with LC retention time for CC(N)Cc1ccc2c(c1)OCO2 (stereo not given)
(A) 2.97

(Q) Name the recorded LC retention time of the compound listed here: CNC(C)Cc1ccc2c(c1)OCO2 (stereo not given)
(A) 3.02

(Q) Give LC retention time for "Cc1cc(C2CC2)nc(Nc2ccccc2)n1"
(A) 11.4

(Q) Supply measured LC retention time of CCC1OC(=O)C(C)C(OC2CC(C)(OC)C(O)C(C)O2)C(C)C(OC2OC(C)CC(N(C)C)C2O)C(C)(O)CC(C)CN(C)C(C)C(O)C1(C)O (stereo not given) in your reply.
(A) 6.2

(Q) Give reported LC retention time value for C=C1CC2C3C=C(C)C4=CC(=O)CCC4(C)C3CCC2(C)C1(OC(C)=O)C(C)=O (stereo not given)
(A) 11.8

(Q) Fill in LC retention time for record "NC(=O)N1c2ccccc2C=Cc2ccccc21"
(A) 8.1

(Q) Give the reported LC retention time for this compound. COc1ccc(C(CN(C)C)C2(O)CCCCC2)cc1 (stereo not given)
(A) 6.34

(Q) Hello, please tell me recorded LC retention time for this one: CCCCC(C)C(OC(=O)CC(CC(=O)O)C(=O)O)C(CC(C)CCCCCCC(O)CC(O)C(C)N)OC(=O)CC(CC(=O)O)C(=O)O (stereo not given)
(A) 11

(Q) Find the measured LC retention time of O=C(OC1CC2CCC([NH2+]2)C1C(=O)[O-])c1ccccc1 (stereo not given) and report it.
(A) 4.3

(Q) Give the value of LC retention time reported for the following: "Cc1ccc(C)c(OCCCC(C)(C)C(=O)O)c1"
(A) 12.8

(Q) Indicate the recorded LC retention time value for this compound: "CNC(=O)ON=C(C)SC"
(A) 3.09

====

Experimental Protocol: RP, Waters ACQUITY UPLC BEH C18, 100 × 2.1 mm, 1.7 µm, 60 °C, 0.3 mL/min, estimated dead time 0.73 min; A: water + 0.01% formic acid; B: methanol + 0.01% formic acid; gradient (min/%B) 0/10 14/90 16/90
Measurement Context: stereoisomer not certain
The threshold is inclusive: LC retention time of exactly 4 min counts as Condition met; values below receive Condition not met.

(Q) Determine whether this compound has LC retention time no lower than 4 min: "Nc1ccc(S(=O)(=O)Nc2ncccn2)cc1"
(A) Condition not met

(Q) Could you tell me if the measured LC retention time of "CCNc1nc(NC(C)(C)C)[nH]c(=O)n1" reaches 4 min or more?
(A) Condition met

(Q) Entry CNC(C)Cc1ccccc1 (configuration not stated) : is its LC retention time no less than 4 min?
(A) Condition not met

(Q) Determine whether this compound has LC retention time no lower than 4 min: CCOC(=O)C(CCc1ccccc1)NC(C)C(=O)N1CCCC1C(=O)O (configuration not stated)
(A) Condition met

(Q) Reported LC retention time reaches at least 4 min for "Cc1nnc(N=S(=O)(O)c2ccc(N)cc2)s1" ?
(A) Condition not met

(Q) LC retention time >= 4 min for COc1cc2c(c3oc(=O)c4c(c13)CCOC4=O)C1C=COC1O2 (configuration not stated) ?
(A) Condition met

====

Experimental Protocol: RP, Waters ACQUITY UPLC BEH C18, 100 × 2.1 mm, 1.7 µm, 60 °C, 0.3 mL/min, estimated dead time 0.73 min; A: water + 0.01% formic acid; B: methanol + 0.01% formic acid; gradient (min/%B) 0/10 14/90 16/90
Measurement Context: stereoisomer not certain
Mark 1 for LC retention time under 7 min, -1 if at or over.

(Q) Is the reported LC retention time for COC(=O)C1C2CCC(CC1OC(=O)c1ccccc1)N2 (stereo not drawn) strictly below 7 min?
(A) 1

(Q) Check if LC retention time falls below 7 min for COC(=O)C1C(OC(=O)c2ccccc2)CC2CCC1N2C (stereo not drawn) .
(A) 1

(Q) Just wondering, is LC retention time of COc1cc2c(c3oc(=O)c4c(c13)CCOC4=O)C1CCOC1O2 (stereo not drawn) below 7 min?
(A) 1

(Q) Quick check: LC retention time of CCOC(=O)C1C(OC(=O)c2ccccc2)CC2CCC1N2C (stereo not drawn) under 7 min?
(A) 1

(Q) Report whether reported LC retention time is lower than 7 min (strictly) for "COC=C(C(=O)OC)c1ccccc1Oc1cc(Oc2ccccc2C#N)ncn1"
(A) -1

(Q) Could you please tell me whether LC retention time recorded for CCC(C)C(=O)OC1CC(O)C=C2C=CC(C)C(CCC(O)CC(O)CC(=O)O)C21 (stereo not drawn) is less than 7 min?
(A) -1

(Q) Bench note: check whether CCC(C)(C)C(=O)OC1CC(C)C=C2C=CC(C)C(CCC3CC(O)CC(=O)O3)C21 (stereo not drawn) shows LC retention time below 7 min
(A) -1

(Q) Check if LC retention time falls below 7 min for "O=C1OCCN1N=Cc1ccc([N+](=O)[O-])o1" .
(A) 1

(Q) Does CCC1OC(=O)C(C)C(OC2CC(C)(OC)C(O)C(C)O2)C(C)C(OC2OC(C)CC(N(C)C)C2O)C(C)(O)CC(C)C(=NOCOCCOC)C(C)C(O)C1(C)O (stereo not drawn) have LC retention time strictly under 7 min?
(A) -1

(Q) Is it true that LC retention time reported for CCCCC(C)C(OC(=O)CC(CC(=O)O)C(=O)O)C(CC(C)CC(O)CCCCC(O)CC(O)C(C)N)OC(=O)CC(CC(=O)O)C(=O)O (stereo not drawn) is less than 7 min?
(A) -1

(Q) Does the reported LC retention time of CCC1OC(=O)C(C)C(OC2CC(C)(OC)C(O)C(C)O2)C(C)C(OC2OC(C)CC(N(C)C)C2O)C(C)(O)CC(C)C(=O)C(C)C(O)C1(C)O (stereo not drawn) stay below 7 min?
(A) -1

(Q) Given the entry CCOC(=O)CC(SP(=S)(OC)OC)C(=O)OCC (stereo not drawn) , would its reported LC retention time be below 7 min?
(A) -1

(Q) Lab log: compare recorded LC retention time with 7 min; is it strictly lower for "CCCCOC(=O)c1ccc(O)cc1" ?
(A) -1

(Q) Threshold test, LC retention time < 7 min: Cc1onc(-c2ccccc2)c1C(=O)NC1C(=O)N2C1SC(C)(C)C2C(=O)O (stereo not drawn)
(A) -1

(Q) Does the reported LC retention time of "CNC(=O)Oc1cccc2ccccc12" stay below 7 min?
(A) -1

(Q) Lab note: LC retention time threshold 7 min. Does this compound come in strictly under it? "COc1cc(Cc2cnc(N)nc2N)cc(OC)c1OC"
(A) 1

(Q) Please indicate whether the reported LC retention time of CC12CCC3c4ccc(OS(=O)(=O)O)cc4CCC3C1CCC2O (stereo not drawn) is strictly below 7 min.
(A) -1

(Q) Say whether its LC retention time is strictly beneath 7 min. Entry: CC1CCCC(=O)CCCC=Cc2cc(O)cc(O)c2C(=O)O1 (stereo not drawn)
(A) -1

(Q) Is it true that LC retention time reported for "COc1nc(N)nc(NC(C)(C)C)n1" is less than 7 min?
(A) 1

(Q) # strict comparison: is reported LC retention time < 7 min? input = "Cc1cc2c(s1)Nc1ccccc1N=C2N1CCN(C)CC1"
(A) 1

(Q) Record "COc1nn(CSP(=S)(OC)OC)c(=O)s1" : is its LC retention time strictly below 7 min?
(A) -1

(Q) In the record for COc1ccc2nc(S(=O)Cc3ncc(C)c(OC)c3C)[nH]c2c1 (stereo not drawn) , is LC retention time less than 7 min?
(A) -1

(Q) hey, is LC retention time for "COC(=O)Nc1nc2ccccc2[nH]1" lower than 7 min or not?
(A) 1

(Q) # strict comparison: is reported LC retention time < 7 min? input = CC(COc1ccc(Oc2ccccc2)cc1)Oc1ccccn1 (stereo not drawn)
(A) -1

(Q) Criterion: LC retention time strictly below 7 min. Is it met by "CCNc1nc(NC(C)(C)C)nc(OC)n1" ?
(A) -1

(Q) Dear reviewer, please state whether CCCCCc1cc(O)c2c(c1)OC(C)(C)C1CCC(C(=O)O)=CC21 (stereo not drawn) has LC retention time strictly beneath 7 min.
(A) -1

(Q) For this compound, is LC retention time lower than 7 min? "Cc1nc(N(C)C)nc(OC(=O)N(C)C)c1C"
(A) -1

(Q) Take the compound CNC(C)C(=O)c1ccccc1 (stereo not drawn) and say whether its LC retention time is less than 7 min.
(A) 1

(Q) Please let me know if CCC1OC(=O)CC(O)C(C)C(OC2OC(C)C(OC3CC(C)(O)C(O)C(C)O3)C(N(C)C)C2O)C(CC=O)CC(C)C(=O)C=CC(C)=CC1COC1OC(C)C(O)C(OC)C1OC (stereo not drawn) shows LC retention time below 7 min.
(A) -1

(Q) Please state whether LC retention time is below 7 min for COc1cc2c(c3oc(=O)c4c(c13)CCC4=O)C1CCOC1O2 (stereo not drawn)
(A) 1

(Q) Identify whether the compound CC(N)Cc1ccccc1 (stereo not drawn) records LC retention time below 7 min.
(A) 1

(Q) A record lists CC(=O)OCC12CC(OC(=O)CC(C)C)C(C)=CC1OC1C(O)C(O)C2(C)C12CO2 (stereo not drawn) . Is its LC retention time below 7 min?
(A) -1

(Q) A record lists "CCOP(=S)(OCC)Oc1ccc(=O)n(-c2ccccc2)n1" . Is its LC retention time below 7 min?
(A) -1

(Q) Please let me know if "CCNc1nc(NCC)[nH]c(=O)n1" shows LC retention time below 7 min.
(A) 1

(Q) Decide: LC retention time of COc1cc2c(c3oc(=O)c4c(c13)CCC4=O)C1(O)C=COC1O2 (stereo not drawn) strictly below 7 min?
(A) 1

(Q) Please indicate whether the reported LC retention time of "CCn1cc(C(=O)O)c(=O)c2cnc(N3CCNCC3)nc21" is strictly below 7 min.
(A) 1

(Q) Consider "COc1ccc(C(=O)c2ccccc2)c(O)c1" . Does its LC retention time lie strictly below 7 min?
(A) -1

(Q) For CC(=O)OCC12CC(OC(=O)CC(C)C)C(C)=CC1OC1C(O)C(OC(C)=O)C2(C)C12CO2 (stereo not drawn) , is the recorded LC retention time below the cut-off of 7 min?
(A) -1

(Q) Please check: LC retention time for "CCCOC(=O)c1ccc(O)cc1" , strictly under 7 min or not?
(A) -1

(Q) Quick check: does "CCCCC1=NC2(CCCC2)C(=O)N1Cc1ccc(-c2ccccc2-c2nn[nH]n2)cc1" have LC retention time under 7 min?
(A) -1
